method-notes: Steady state kinetics of purified NTR, variable substrate CB1954
Format: biochemical
measurement-conditions: variable substrate CB1954, fixed substrate NADH

{"molecule": "F124H: NTR mutant, phenylalanine 124 to histidine (protein) MDIISVALKRHSTKAFDASKKLTPEQAEQIKTLLQYSPSSTNSQPWHFIVASTEEGKARVAKSAAGNYVFNERKMLDASHVVVFCAKTAMDDVWLKLVVDQEDADGRFATPEAKAANDKGRKFHADMHRKDLHDDAEWMAKQVYLNVGNFLLGVAALGLDAVPIEGFDAAILDAEFGLKEKGYTSLVVVPVGHHSVEDFNATLPKSRLPQNITLTEV", "kcat [s⁻¹]": 5.93}
